Test system: perfused rat stomach
protocol: antisecretory activity in the perfused rat stomach (inhibition of histamine- or pentagastrin-stimulated acid secretion)
Assay type: in vivo
reported-conditions: iv, amount required to inhibit the histamine- or pentagastrin-stimulated secretion by 50 %, two to four rats per determination, read-out: ID50 (μmoles/kg) Rat perfused stomach i.v.
# label = Satisfied if ED50 < 0.1 µmol/kg else Not satisfied

C#CCNC1=NS(=O)(=O)N=C(NCCSCc2csc(N=C(N)N)n2)N1C : Not satisfied

Confirm or reject: ED50 of `CN1C(NC#N)=NS(=O)(=O)N=C1NCCSCc1csc(N=C(N)N)n1` lies strictly below 0.1 µmol/kg
Not satisfied

// repeat for `CN1C(N)=NS(=O)(=O)N=C1NCCSCc1csc(N=C(N)N)n1` and report
Not satisfied

###

System: perfused rat stomach
protocol: antisecretory activity in the perfused rat stomach (inhibition of histamine- or pentagastrin-stimulated acid secretion)
Type: in vivo
reported-conditions: iv, amount required to inhibit the histamine- or pentagastrin-stimulated secretion by 50 %, two to four rats per determination, read-out: ID50 (μmoles/kg) Rat perfused stomach i.v.
property: ED50 (µmol/kg)
Value expressed in µmol/kg; do not type the unit.

CN/C(=N/CCSCc1nc[nH]c1C)NC#N [Cimetidine, reference compound] : 10.8
CC(C)NC1=NS(=O)(=O)N=C(NCCSCc2csc(N=C(N)N)n2)N1C : 0.28

Can you share its ED50? I mean this molecule: `CN(C)C1=NS(=O)(=O)N=C(NCCSCc2csc(N=C(N)N)n2)N1C`
0.095

Data origin, for the record: patent EP0104611A2
